Test protocol: Pharmacokinetic evaluation in rat
Format: in vivo
Details: male, Sprague-Dawley, plasma, 5 mg/kg, oral, Table 3, read-out: Pharmacokinetic peak plasma concentration (rat) Cmax
Quantity: Cmax (nM)
Please state the figure in nM; there is no need to write the unit.

Compound | Scale unit | Result number
CN(C)CC[C@H](CSc1ccccc1)Nc1ccc(S(=O)(=O)NC(=O)c2ccc(N3CCN(CC4=C(c5ccc(Cl)cc5)CCCC4)CC3)cc2)cc1C(F)(F)F [H, reference compound] | nM | 215

Value of Cmax reported for the compound CC(C)N(C)CC[C@H](CSc1ccccc1)Nc1ccc(S(=O)(=O)NC(=O)c2ccc(N3CCN(CC4=C(c5ccc(Cl)cc5)CCCC4)CC3)cc2)cc1S(=O)(=O)C(F)(F)F [Example 33] is 129

Value of Cmax reported for the compound CN(C)CC[C@H](CSc1ccccc1)Nc1ccc(S(=O)(=O)NC(=O)c2ccc(N3CCN(CC4=C(c5ccc(Cl)cc5)CCCC4)CC3)cc2)cc1[N+](=O)[O-] [G, reference compound] is 57

Value of Cmax reported for the compound O=C(NS(=O)(=O)c1ccc(N[C@H](CCN2C3CCC2CC3)CSc2ccccc2)c(S(=O)(=O)C(F)(F)F)c1)c1ccc(N2CCN(CC3=C(c4ccc(Cl)cc4)CCCC3)CC2)cc1 [Example 8] is 71

Value of Cmax reported for the compound O=C(NS(=O)(=O)c1ccc(N[C@H](CCN2CCOCC2)CSc2ccccc2)c(S(=O)(=O)C(F)(F)F)c1)c1ccc(N2CCN(CC3=C(c4ccc(Cl)cc4)CCCC3)CC2)cc1 [Example 7] is 518

Value of Cmax reported for the compound O=C(NS(=O)(=O)c1ccc(N[C@H](CCN2CC3CC2CO3)CSc2ccccc2)c(S(=O)(=O)C(F)(F)F)c1)c1ccc(N2CCN(CC3=C(c4ccc(Cl)cc4)CCCC3)CC2)cc1 (stereo partly shown) [Example 9] is 156

Value of Cmax reported for the compound O=C(NS(=O)(=O)c1ccc(N[C@H](CCN2C[C@@H]3C[C@H]2CO3)CSc2ccccc2)c(S(=O)(=O)C(F)(F)Cl)c1)c1ccc(N2CCN(CC3=C(c4ccc(Cl)cc4)CCCC3)CC2)cc1 [Example 6] is 113
